tgt: κ-opioid receptor (Homo sapiens, UniProt P41145)
Sequence (P41145 whole entry): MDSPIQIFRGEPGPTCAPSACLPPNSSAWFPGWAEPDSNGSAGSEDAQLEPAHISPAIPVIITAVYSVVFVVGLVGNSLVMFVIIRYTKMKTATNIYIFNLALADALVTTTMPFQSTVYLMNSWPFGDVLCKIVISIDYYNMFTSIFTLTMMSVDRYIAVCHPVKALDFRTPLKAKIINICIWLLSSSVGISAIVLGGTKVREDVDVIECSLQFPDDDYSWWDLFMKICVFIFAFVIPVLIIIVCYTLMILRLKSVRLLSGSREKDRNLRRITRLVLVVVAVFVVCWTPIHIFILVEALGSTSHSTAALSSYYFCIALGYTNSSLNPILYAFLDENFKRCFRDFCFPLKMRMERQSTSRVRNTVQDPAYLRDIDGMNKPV
assay-notes: κ-opioid receptor GTPγS functional assay, U2OS cells
Assay type: biochemical
Parameters: expressed in transfected cells; host or cells: U-2 OS
conditions-used: U2OS cells; read-out: GTPγS κ EC50
experimental-readout: EC50 (nM)
Give just the number in nM; leave the unit off.

Provide the documented EC50 with κ-opioid receptor (Homo sapiens, UniProt P41145) as the system for COC(=O)[C@H](Cc1ccccc1)NCCCC[C@]12CCN(CC3CC3)[C@H](Cc3ccc(O)cc31)[C@@H]2C [Compound 27]
0.15

Would you mind doing CC(C)C[C@H](NCCCC[C@]12CCN(CC3CC3)[C@H](Cc3ccc(O)cc31)[C@@H]2C)C(=O)O [Compound 24] as well?
0.51

Lookup COc1ccc2c(c1)[C@]1(CCNC(=O)CN)CCN(CC3CC3)[C@H](C2)[C@@H]1C [Compound 33]
4.93

For COc1ccc2c(c1)[C@]1(CCNCCCn3ccnc3)CCN(C)[C@H](C2)[C@@H]1C [Compound 55] then?
14700

Param item: COc1ccc2c(c1)[C@]1(CCN[C@@H](C)C(=O)O)CCN(CC3CC3)[C@H](C2)[C@@H]1C [Compound 40]
542

Another compound to check: C[C@H]1[C@H]2Cc3ccc(O)cc3[C@]1(CC(=O)N1CCC(N(C3CC3)S(=O)(=O)c3ccc(Cl)cc3)CC1)CCN2C [Compound 61]
45.4

Now try C[C@H]1[C@H]2Cc3ccc(O)cc3[C@]1(CCN1CCC(N(C3CC3)S(=O)(=O)c3ccc(Cl)cc3)CC1)CCN2C [Compound 58] .
11

* * *

tgt: μ-opioid receptor (Homo sapiens, UniProt P35372)
Sequence (P35372 whole entry, species assumed): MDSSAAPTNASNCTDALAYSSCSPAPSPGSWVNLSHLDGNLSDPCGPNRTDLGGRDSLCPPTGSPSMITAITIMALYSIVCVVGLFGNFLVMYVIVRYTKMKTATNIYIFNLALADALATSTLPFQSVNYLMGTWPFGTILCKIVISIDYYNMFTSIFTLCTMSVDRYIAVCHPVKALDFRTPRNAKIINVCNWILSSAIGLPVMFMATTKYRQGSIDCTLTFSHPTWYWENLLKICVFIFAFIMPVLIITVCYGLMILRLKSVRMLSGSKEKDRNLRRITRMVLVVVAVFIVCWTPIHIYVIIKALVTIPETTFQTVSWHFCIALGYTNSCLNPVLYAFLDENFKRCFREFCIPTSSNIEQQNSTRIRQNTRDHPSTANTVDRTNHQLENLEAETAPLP
assay-notes: μ-opioid receptor GTPγS functional assay, U2OS cells
conditions-used: read-out: GTPγS μ Emax
Each record is given True if its reported Emax is strictly below 50%. Records at or above 50% are given False.

Emax strictly < 50% for this compound? COC(=O)[C@H](C)NCC[C@]12CCN(CC3CC3)[C@H](Cc3ccc(OC)cc31)[C@@H]2C [Compound 38]
False

# repeat for C[C@H]1[C@H]2Cc3ccc(O)cc3[C@]1(CCCCN[C@@H](CCCCN)C(=O)O)CCN2CC1CC1 [Compound 25]
True

Now give it for COC(=O)[C@H](Cc1ccccc1)NCCCC[C@]12CCN(CC3CC3)[C@H](Cc3ccc(O)cc31)[C@@H]2C [Compound 27] too.
True

Likewise for COc1ccc2c(c1)[C@]1(CCNCCCN3CCCC3=O)CCN(C)[C@H](C2)[C@@H]1C [Compound 57] ?
False

Please answer likewise for COc1ccc2c(c1)[C@]1(CCN(C)CCCN(C)C)CCN(C)[C@H](C2)[C@@H]1C [Compound 54]
False

One more compound: COc1ccc2c(c1)[C@]1(CCO)CCN(CC3CC3)[C@H](C2)[C@@H]1C [Compound 43]
False

* * *

Would you kindly list log10 EC50 for each of these molecules?
tgt: μ-opioid receptor (Homo sapiens, UniProt P35372)
assay-notes: cell-based
Design: purchased Perkin Elmer, Shelton, Conn
conditions-used: U2OS cells; read-out: β-Arr2 μ EC50
A difference of one corresponds to tenfold EC50; all values are log10 with EC50 in nM.

Request the reported log10 EC50 associated with C[C@H]1[C@H]2Cc3ccc(O)cc3[C@]1(CCNC(=O)Nc1ccc(F)cc1)CCN2CC1CC1
-0.51

Same read-out for C[C@H]1[C@H]2Cc3ccc(O)cc3[C@]1(CCOc1cncc(C(=O)O)c1)CCN2C ?
2.61

Likewise for C[C@H]1[C@H]2Cc3ccc(O)cc3[C@]1(CCO)CCN2C ?
2.59

Likewise for C[C@H]1[C@H]2Cc3ccc(O)cc3[C@]1(CCNC(=O)Nc1ccccc1F)CCN2C ?
1.96

And what about the molecule C[C@H]1[C@H]2Cc3ccc(O)cc3C1(CCN[C@H]1C[C@H]3CCC[C@@H](C1)N3CC[C@@H]1CC[C@H]3C[C@@H]1C3(C)C)CCN2C ?
3.87

Moving on to the next molecule: C[C@H]1[C@H]2Cc3ccc(O)cc3[C@]1(CCNC(=O)Nc1cccc(F)c1)CCN2C
1.59

Try the molecule C[C@H]1[C@H]2Cc3ccc(O)cc3[C@]1(CC(=O)N1CCC(N(C3CC3)S(=O)(=O)c3ccc(Cl)cc3)CC1)CCN2C
2.81

Also check C[C@H]1[C@H]2Cc3ccc(O)cc3[C@]1(CCCC(=O)N(C)C)CCN2CC1CCC1
1.48

Then this molecule: C[C@H]1[C@H]2Cc3ccc(O)cc3[C@]1(CCNC(=O)CCc1ccccc1)CCN2C
0.82

Data credit: patent US10130615B2
